These data points were gathered from ChEMBL document CHEMBL6177928.

Assay: Cytotoxicity against human WISH cells incubated for 48 hrs by MTT assay
Format: toxicity, cell-based

>  <sample_smiles>
N#Cc1sc(Nc2ccccc2)nc1NC(=O)CN1CCCCC1

>  <measurement_units>
µM

>  <IC50 at 48 h>
21.2

$$$$
>  <sample_smiles>
N#Cc1sc(Nc2ccccc2)nc1Nc1cnc(N)s1

>  <measurement_units>
µM

>  <IC50 at 48 h>
82.7

$$$$
>  <sample_smiles>
COc1cccc2c1C(=O)c1c(O)c3c(c(O)c1C2=O)C[C@@](O)(C(=O)CO)C[C@@H]3O[C@H]1C[C@H](N)[C@H](O)[C@H](C)O1

>  <measurement_units>
µM

>  <IC50 at 48 h>
3.34

$$$$
>  <sample_smiles>
N#Cc1sc(Nc2ccccc2)nc1NC(=O)CNNCC(=O)c1ccc(Cl)cc1

>  <measurement_units>
µM

>  <IC50 at 48 h>
77.2

$$$$
>  <sample_smiles>
N#Cc1sc(Nc2ccccc2)nc1Nc1cnc(N)o1

>  <measurement_units>
µM

>  <IC50 at 48 h>
24

$$$$
>  <sample_smiles>
N#Cc1sc(Nc2ccccc2)nc1NC(=O)CNNCc1ccccc1

>  <measurement_units>
µM

>  <IC50 at 48 h>
47.4

$$$$

----------
System: WISH
Test: Cytotoxicity against human WISH cells at up to 50 uM incubated for 48 hrs by MTT assay
Format: toxicity, cell-based
property_name: Activity

>  <compound>
N#Cc1sc(Nc2ccccc2)nc1NC(=O)CNNCC(=O)c1ccc(Cl)cc1

>  <property_name>
Activity

>  <reported_value>
Non-toxic

$$$$
>  <compound>
N#Cc1sc(Nc2ccccc2)nc1NC(=O)CNNCc1ccccc1

>  <property_name>
Activity

>  <reported_value>
Non-toxic

$$$$
>  <compound>
N#Cc1sc(Nc2ccccc2)nc1Nc1cnc(N)s1

>  <property_name>
Activity

>  <reported_value>
Non-toxic

$$$$
>  <compound>
COc1cccc2c1C(=O)c1c(O)c3c(c(O)c1C2=O)C[C@@](O)(C(=O)CO)C[C@@H]3O[C@H]1C[C@H](N)[C@H](O)[C@H](C)O1 [DOXORUBICIN]

>  <property_name>
Activity

>  <reported_value>
Non-toxic

$$$$
>  <compound>
N#Cc1sc(Nc2ccccc2)nc1NC(=O)CN1CCCCC1

>  <property_name>
Activity

>  <reported_value>
Non-toxic

$$$$
>  <compound>
N#Cc1sc(Nc2ccccc2)nc1Nc1cnc(N)o1

>  <property_name>
Activity

>  <reported_value>
Non-toxic

$$$$

----------
System: HCT-116
Assay: cells
Details: Homo sapiens, HCT-116, 48 h
Description: Antitumor activity against human HCT-116 cells assessed as inhibition of cell viability incubated for 48 hrs by MTT assay
pIC50: −log10 of the molar value.

>  <sample_smiles>
N#Cc1sc(Nc2ccccc2)nc1NC(=O)CNNC(=O)c1ccc(Cl)cc1

>  <pIC50>
4.04

$$$$
>  <sample_smiles>
N#Cc1sc(Nc2ccccc2)nc1NC(=O)CNNCC(=O)c1ccc(Cl)cc1

>  <pIC50>
4.93

$$$$
>  <sample_smiles>
N#Cc1sc(Nc2ccccc2)nc1NC(=O)CNNC(=O)c1ccccc1

>  <pIC50>
4.16

$$$$
>  <sample_smiles>
N#Cc1sc(Nc2ccccc2)nc1Nc1cnc(N)s1

>  <pIC50>
4.71

$$$$
>  <sample_smiles>
Cc1ccc(C(=O)CNNCC(=O)Nc2nc(Nc3ccccc3)sc2C#N)cc1

>  <pIC50>
4.09

$$$$
>  <sample_smiles>
N#Cc1sc(Nc2ccccc2)nc1Nc1cnc(N)o1

>  <pIC50>
4.59

$$$$
>  <sample_smiles>
N#Cc1sc(Nc2ccccc2)nc1NC(=O)CNNCC(=O)c1ccc(Br)cc1

>  <pIC50>
4.46

$$$$
>  <sample_smiles>
N#Cc1sc(Nc2ccccc2)nc1NC(=O)CNNCC(=O)c1cc2ccccc2oc1=O

>  <pIC50>
4.43

$$$$
>  <sample_smiles>
N#Cc1sc(Nc2ccccc2)nc1NC(=O)CNNCc1ccccc1

>  <pIC50>
4.38

$$$$
>  <sample_smiles>
N#Cc1sc(Nc2ccccc2)nc1N1CSCC1=O

>  <pIC50>
4.06

$$$$
>  <sample_smiles>
N#Cc1sc(Nc2ccccc2)nc1NC(=O)CN1CCN(c2cccc(Cl)c2)CC1

>  <pIC50>
4.22

$$$$
>  <sample_smiles>
N#Cc1sc(Nc2ccccc2)nc1NC(=O)CNNCC(=O)c1ccccc1

>  <pIC50>
4.44

$$$$
>  <sample_smiles>
N#Cc1sc(Nc2ccccc2)nc1NC(=O)CN1CCN(c2ccccc2)CC1

>  <pIC50>
4.29

$$$$
>  <sample_smiles>
N#Cc1sc(Nc2ccccc2)nc1NC(=O)CNNC(=O)c1ccc([N+](=O)[O-])cc1

>  <pIC50>
4.26

$$$$
>  <sample_smiles>
CCN(CC)CCNC(=O)c1c(C)[nH]c(/C=C2\C(=O)Nc3ccc(F)cc32)c1C

>  <pIC50>
5.07

$$$$
>  <sample_smiles>
N#Cc1sc(Nc2ccccc2)nc1N1C(=N)SCC1=O

>  <pIC50>
4.36

$$$$
>  <sample_smiles>
N#Cc1sc(Nc2ccccc2)nc1NC(=O)CN1CCN(Cc2ccccc2)CC1

>  <pIC50>
4.25

$$$$
>  <sample_smiles>
N#Cc1sc(Nc2ccccc2)nc1NC(=O)CN1CCOCC1

>  <pIC50>
4.51

$$$$
>  <sample_smiles>
CC(=O)N1CCN(CC(=O)Nc2nc(Nc3ccccc3)sc2C#N)CC1

>  <pIC50>
4.19

$$$$
>  <sample_smiles>
N#Cc1sc(Nc2ccccc2)nc1NC(=O)CNNCc1ccc([N+](=O)[O-])cc1

>  <pIC50>
4.53

$$$$
>  <sample_smiles>
N#Cc1sc(Nc2ccccc2)nc1NC(=O)CN1CCCCC1

>  <pIC50>
4.85

$$$$
>  <sample_smiles>
CN1CCN(CC(=O)Nc2nc(Nc3ccccc3)sc2C#N)CC1

>  <pIC50>
4.15

$$$$
